Exercise: for every item that follows, state its recorded POTASSIUM.
Organism: Rattus norvegicus
assayDetails: DrugMatrix - Regimen: Daily Repeat
Assay type: toxicity, organism-based, Sprague-Dawley
Set-up: regimen Daily Repeat, gender Male, age 6-8 weeks
statedConditions: in vivo, po, 0 mg/kg, 72 h, tissue Plasma, route oral GAVAGE, dose level Control, time 3 day, […]
Numbers only, in MEQ/L.

Some molecules with recorded POTASSIUM:
COc1cc(N)c(Cl)cc1C(=O)NC1CCN(CCCOc2ccc(F)cc2)CC1OC (stereo not given) [CISAPRIDE] = 5.22
COc1cc([C@@H]2c3cc4c(cc3[C@@H](O[C@@H]3O[C@@H]5CO[C@@H](C)O[C@H]5[C@H](O)[C@H]3O)[C@H]3COC(=O)[C@H]23)OCO4)cc(OC)c1O [ETOPOSIDE] = 5.37
CC(C)(C)NC(=O)[C@H]1CC[C@H]2[C@@H]3CC[C@H]4NC(=O)C=C[C@]4(C)[C@H]3CC[C@]12C [FINASTERIDE] = 5.37
CO[C@H]1/C=C/O[C@@]2(C)Oc3c(C)c(O)c4c(O)c(c(/C=N/N5CCN(C6CCCC6)CC5)c(O)c4c3C2=O)NC(=O)/C(C)=C\C=C\[C@H](C)[C@H](O)[C@@H](C)[C@@H](O)[C@@H](C)[C@H](OC(C)=O)[C@@H]1C = 6.46

Alright, here's another molecule for you.
The reported value for Clc1ccc(COC(Cn2ccnc2)c2ccc(Cl)cc2Cl)cc1 (stereo not given) in terms of POTASSIUM is 5.79

###

Species: Rattus norvegicus
assayDetails: DrugMatrix - Regimen: Daily Repeat
Assay type: toxicity, organism-based, Sprague-Dawley
Set-up: regimen Daily Repeat, gender Male, age 6-8 weeks
statedConditions: in vivo, po, 1500 mg/kg, 72 h, tissue Blood, route oral GAVAGE, dose level High, time 3 day, vehicle .5 % CMC
readoutType: ERYTHROCYTE COUNT (x10E6/uL)
Numbers only, in x10E6/uL.

Hi team, please reply with ERYTHROCYTE COUNT for each item in this list.
1. CN(C)[C@@H]1C(O)=C(C(N)=O)C(=O)[C@@]2(O)C(O)=C3C(=O)c4c(O)ccc(Cl)c4[C@@](C)(O)[C@H]3C[C@@H]12 [CHLORTETRACYCLINE]
2. O=c1cnn([C@@H]2O[C@H](CO)[C@@H](O)[C@H]2O)c(=O)[nH]1 [6-AZAURIDINE]
3. COC(=O)Nc1nc2ccc([S+]([O-])c3ccccc3)cc2[nH]1 (stereo not given) [OXFENDAZOLE]

Response:
5.83
5.26
5.79

Hi team, please reply with ERYTHROCYTE COUNT for each item in this list.
1. CC(C)=CCC/C(C)=C/CO [GERANIOL]
2. CC(C)Oc1ccc2c(=O)c(-c3ccccc3)coc2c1 [IPRIFLAVONE]

Response:
1: 5.7; 2: 5.63

###

Species: Rattus norvegicus
assayDetails: DrugMatrix - Regimen: Daily Repeat
Assay type: toxicity, organism-based, Sprague-Dawley
Parameters: regimen Daily Repeat, gender Male, age 6-8 weeks
statedConditions: in vivo, po, 0 mg/kg, 120 h, tissue Plasma, route oral GAVAGE, dose level Control, time 5 day, vehicle .5 % CMC
Output true (1) for CREATINE PHOSPHOKINASE not less than 200 u/L; output false (0) otherwise.

Please review the entries below; each comes with its answer.
CC(=O)Oc1ccc(C(c2ccc(OC(C)=O)cc2)c2ccccn2)cc1 = false (0)
NC1CCN(c2nc3c(cc2F)c(=O)c(C(=O)O)cn3-c2ccc(F)cc2F)C1 (centres undefined) = false (0)
C[C@H]1O[C@@H](n2cc(F)c(=O)[nH]c2=O)[C@H](O)[C@@H]1O = true (1)
COc1ccc(C2C(=O)c3ccccc3C2=O)cc1 = false (0)
CN(C/C=C/C#CC(C)(C)C)Cc1cccc2ccccc12 = false (0)
COC1=C(OC)C(=O)C(CCCCCCCCCCO)=C(C)C1=O = true (1)

Query: Is CREATINE PHOSPHOKINASE at least 200 u/L? Consider O=C1C(CC[S+]([O-])c2ccccc2)C(=O)N(c2ccccc2)N1c1ccccc1 (centres undefined)
Response: true (1)

Query: Is CREATINE PHOSPHOKINASE at least 200 u/L? Consider `CN/C(=N/CCSCc1nc[nH]c1C)NC#N`
Response: true (1)

Query: Is CREATINE PHOSPHOKINASE at least 200 u/L? Consider `O=C1CN=C(c2ccccc2Cl)c2cc([N+](=O)[O-])ccc2N1`
Response: true (1)

###

Exercise: for every item that follows, state its recorded PLATELET COUNT.
Species: Rattus norvegicus
assayDetails: DrugMatrix - Regimen: Daily Repeat
Type: toxicity, organism-based, Sprague-Dawley
Design: regimen Daily Repeat, gender Male, age 6-8 weeks
statedConditions: in vivo, sc, 0 mg/kg, 120 h, tissue Blood, route subcutaneous, dose level Control, time 5 day, […]
Give bare numbers, in x10E3/uL.

Some compounds with recorded PLATELET COUNT:
O=C(Nc1ccc(Br)cc1)c1cc(Br)cc(Br)c1O = 1297.83
CCN(CC)CCOCCC1=CCC2CC1C2(C)C (stereo not given) = 1347.83
Oc1c(Cl)cc(Cl)c(Cl)c1Cc1c(O)c(Cl)cc(Cl)c1Cl = 1322.17
CC(C)(C)CC(C)(C)c1ccc(OCCOCC[N+](C)(C)Cc2ccccc2)cc1.[Cl-] [BENZETHONIUM CHLORIDE] = 1322.17

Alright, here's another compound for you.
The reported value for CCC(=O)O[C@]1(C(=O)CCl)[C@@H](C)C[C@H]2[C@@H]3CCC4=CC(=O)C=C[C@]4(C)[C@@]3(F)[C@@H](O)C[C@@]21C [CLOBETASOL PROPIONATE] in terms of PLATELET COUNT is 1297.83

###

Exercise: for every item that follows, state its recorded MONOCYTE.
Species on record: Rattus norvegicus
assayDetails: DrugMatrix - Regimen: Daily Repeat
Assay type: toxicity, organism-based, Sprague-Dawley
Set-up: regimen Daily Repeat, gender Male, age 6-8 weeks
statedConditions: in vivo, po, 1500 mg/kg, 72 h, tissue Blood, route oral GAVAGE, dose level High, time 3 day, vehicle .5 % CMC
Give bare numbers, in %.

Some molecules with recorded MONOCYTE:
CN(C)[C@@H]1C(O)=C(C(N)=O)C(=O)[C@@]2(O)C(O)=C3C(=O)c4c(O)ccc(Cl)c4[C@@](C)(O)[C@H]3C[C@@H]12 = 4
COC(=O)Nc1nc2ccc([S+]([O-])c3ccccc3)cc2[nH]1 (stereo not given) = 1.67
CC(C)=CCC/C(C)=C/CO = 0.33
CC(C)Oc1ccc2c(=O)c(-c3ccccc3)coc2c1 = 0.67

Alright, here's another molecule for you.
The reported value for `O=c1cnn([C@@H]2O[C@H](CO)[C@@H](O)[C@H]2O)c(=O)[nH]1` in terms of MONOCYTE is 0.33

###

Species: Rattus norvegicus
assayDetails: DrugMatrix - Regimen: Daily Repeat
Type: toxicity, organism-based, Sprague-Dawley
Set-up: regimen Daily Repeat, gender Male, age 6-8 weeks
statedConditions: in vivo, po, 0 mg/kg, 120 h, tissue Blood, route oral GAVAGE, dose level Control, time 5 day, vehicle 100 % WATER
Exercise: for every item that follows, state its recorded LYMPHOCYTE.
Express the reported value numerically, then name its unit.

Some compounds with recorded LYMPHOCYTE:
NNc1nncc2ccccc12 [HYDRALAZINE] = 89.5%
CS(=O)(=O)c1ccc([C@@H](O)[C@@H](CO)NC(=O)C(Cl)Cl)cc1 = 90.5%
CC(C)NCC(O)c1ccc(NS(C)(=O)=O)cc1 (stereo not drawn) = 89.5%
CCN(CC)CCNC(=O)c1cc(S(C)(=O)=O)ccc1OC [TIAPRIDE] = 90.5%
Oc1cccc(O)c1O = 83%

Hi team, please reply with LYMPHOCYTE for each item in this list.
1. CN(C)CCOC(c1ccccc1)c1ccccc1 [DIPHENHYDRAMINE]
2. C[C@]12C=CC(=O)C=C1CC[C@@H]1[C@@H]2[C@@H](O)C[C@@]2(C)[C@H]1CC[C@]2(O)C(=O)CO
3. Cc1ccc(NC(=O)c2ccc(CN3CCN(C)CC3)cc2)cc1Nc1nccc(-c2cccnc2)n1
4. CN(C)CC[C@@H](c1ccc(Cl)cc1)c1ccccn1

Response:
89.5%
87.33%
90.5%
92.17%

Hi team, please reply with LYMPHOCYTE for each item in this list.
1. CC(C)(C)CC(C)(C)c1ccc(OCCOCC[N+](C)(C)Cc2ccccc2)cc1.[Cl-] [BENZETHONIUM CHLORIDE]
2. O.O.O.O.O.O.[Cl-].[Cl-].[Sr+2] [STRONTIUM CHLORIDE HEXAHYDRATE]
3. CN1[C@@H]2CC[C@H]1C[C@@H](OC(=O)C(CO)c1ccccc1)C2 (stereo partly drawn)
4. Cn1c(=O)c2[nH]cnc2n(C)c1=O.O

Response:
1: 89.5%; 2: 90.5%; 3: 92.17%; 4: 85.83%
